experiment: CellTiter Glo cell viability assay, BXPC3 cells; conditions: human, BXPC3 Cell Viability, vehicle alone 3200 μM
endpoint_name: viability at 24 h, 3200 μM

smiles_structure | observed
CCNCC | < 70%

###

The entries below come with measured viability values attached.
assay: in vitro; settings: human, BXPC3 Cell Viability, vehicle alone 1600 μM; 24 hrs

compound | viability
CC(O)CN(CC(C)O)CC(C)O (centres unmarked) | > 95%
CNC[C@H](O)[C@@H](O)[C@H](O)[C@H](O)CO | 85 to 95%

###

assay: CellTiter Glo cell viability assay, A2780 cells; conditions: human, A2780 Cell Viability, vehicle alone 1600 μM

smiles_structure | viability at 24 h, 1600 μM
CCNCC | > 95%

###

experiment: CellTiter Glo cell viability assay, A2780 cells; conditions: human, A2780 ovarian cancer cells, A2780 Cell Viability, vehicle alone 3200 μM
The entries below come with measured viability at 24 h, 3200 μM values attached.
endpoint_name: viability at 24 h, 3200 μM

compound | observed
NCCN [Ethylenediamine] | < 70%
NCCO [Ethanolamine] | > 95%
OCCNCCO [Diethanolamine] | > 95%
CCN(CC)CC [Triethylamine] | > 95%
NC(CO)(CO)CO [Tris base] | > 95%
NCCCC[C@H](N)C(=O)O [Lysine] | > 95%
C1CNCCN1 [Piperazine] | 85 to 95%

###

assay: in vitro; conditions: human, A2780 Cell Viability, vehicle alone 3200 μM; 24 hrs
The entries below come with measured viability values attached.

molecule | viability
CC(O)CN(CC(C)O)CC(C)O (centres unmarked) | 70 to 85%
CNC[C@H](O)[C@@H](O)[C@H](O)[C@H](O)CO | > 95%

###

The entries below come with measured viability at 24 h, 1600 μM values attached.
Experiment: CellTiter Glo cell viability assay, A2780 cells
Conditions: human, A2780 ovarian cancer cells, A2780 Cell Viability, vehicle alone 1600 μM
Description: Two types of human tumor cells were used in this investigation: BXPC3 human pancreatic cancer cells and A2780 human ovarian cancer cells. The BXPC3 cells were originally obtained from American Type Cell Culture (ATCC). […] The number of cells targeted for the study was 4×10^3 per well in 100 μL of medium. The actual number of cells were counted and seeded in the wells of a 96 well-plate. […]

molecule | viability at 24 h, 1600 μM
CCN(CC)CC [Triethylamine] | > 95%
NC(CO)(CO)CO [Tris base] | > 95%
C1CNCCN1 [Piperazine] | 70 to 85%
NCCN [Ethylenediamine] | 85 to 95%
NCCO [Ethanolamine] | > 95%
OCCNCCO [Diethanolamine] | 85 to 95%
NCCCC[C@H](N)C(=O)O [Lysine] | > 95%

###

experiment: CellTiter Glo cell viability assay, A2780 cells; settings: human, A2780 ovarian cancer cells, A2780 Cell Viability, vehicle alone 800 μM
The entries below come with measured viability at 24 h, 800 μM values attached.
endpoint_name: viability at 24 h, 800 μM

molecule | endpoint_name | observed
NCCN [Ethylenediamine] | viability at 24 h, 800 μM | 85 to 95%
NCCO [Ethanolamine] | viability at 24 h, 800 μM | > 95%
CCN(CC)CC [Triethylamine] | viability at 24 h, 800 μM | > 95%
NC(CO)(CO)CO [Tris base] | viability at 24 h, 800 μM | > 95%
C1CNCCN1 [Piperazine] | viability at 24 h, 800 μM | 85 to 95%
NCCCC[C@H](N)C(=O)O [Lysine] | viability at 24 h, 800 μM | > 95%
OCCNCCO [Diethanolamine] | viability at 24 h, 800 μM | 85 to 95%

###

test: in vitro; conditions: human, A2780 Cell Viability, vehicle alone 800 μM; 24 hrs
endpoint_name: viability

compound | observed
CC(O)CN(CC(C)O)CC(C)O (centres unmarked) [Triisopropanolamine] | > 95%
CNC[C@H](O)[C@@H](O)[C@H](O)[C@H](O)CO [Meglumine] | > 95%

###

assay: CellTiter Glo cell viability assay, BXPC3 cells; details: human, BXPC3 pancreatic cancer cells, BXPC3 Cell Viability, vehicle alone 3200 μM

compound | viability at 24 h, 3200 μM
OCCNCCO [Diethanolamine] | 85 to 95%
NCCCC[C@H](N)C(=O)O [Lysine] | > 95%
C1CNCCN1 [Piperazine] | 70 to 85%
NCCO [Ethanolamine] | 85 to 95%
CCN(CC)CC [Triethylamine] | > 95%
NC(CO)(CO)CO [Tris base] | > 95%
NCCN [Ethylenediamine] | < 70%

###

experiment: CellTiter Glo cell viability assay, BXPC3 cells; details: human, BXPC3 pancreatic cancer cells, BXPC3 Cell Viability, vehicle alone 800 μM
The entries below come with measured viability at 24 h, 800 μM values attached.
endpoint_name: viability at 24 h, 800 μM

smiles_structure | endpoint_name | observed
NCCCC[C@H](N)C(=O)O | viability at 24 h, 800 μM | > 95%
NCCO | viability at 24 h, 800 μM | 85 to 95%
CCN(CC)CC | viability at 24 h, 800 μM | > 95%
C1CNCCN1 | viability at 24 h, 800 μM | 85 to 95%
NCCN | viability at 24 h, 800 μM | > 95%
